# methodNotes: Shake-flask apparent equilibrium solubility in biorelevant media (FeSSGF-V2, FEDGAS pH 3, FeSSGF-V3)
# Assay type: physicochemical
# testParameters: Level I FeSSGF-V3acetates, pH 3, Level I FeSSGF-V3acetates, initial pH 3, pHeq 3.7
measurementLabel: solubility thermodynamic at 4 h (µg/mL)
Provide the reading as a plain figure in µg/mL.

IN: Output solubility thermodynamic at 4 h of CC(=O)N1CCN(c2ccc(OCC3COC(Cn4ccnc4)(c4ccc(Cl)cc4Cl)O3)cc2)CC1 (stereo not shown) [Ketoconazole]
OUT: 3200

====

# methodNotes: Shake-flask apparent equilibrium solubility in biorelevant media (FeSSGF-V2, FEDGAS pH 3, FeSSGF-V3)
# Assay type: physicochemical
# testParameters: biorelevant medium, pH 3, FEDGASbuffer pH 3 (Level I); mean(SD), n = 3
measurementLabel: solubility thermodynamic at 4 h
Kindly format the answer as number then unit.

IN: Provide measured solubility thermodynamic at 4 h value, entry: CC(=O)N1CCN(c2ccc(OCC3COC(Cn4ccnc4)(c4ccc(Cl)cc4Cl)O3)cc2)CC1 (stereo not shown)
OUT: 4600 µg/mL

====

# methodNotes: Shake-flask apparent equilibrium solubility in biorelevant media (FeSSGF-V2, FEDGAS pH 3, FeSSGF-V3)
# Format: physicochemical
# testParameters: Level III FeSSGF-V3HCl, pH 3, Level III FeSSGF-V3HCl, initial pH 3, pHeq 3.8
measurementLabel: solubility thermodynamic at 4 h (µg/mL)
Express your answer in µg/mL, writing the number without its unit.

IN: Consider the molecule CC(=O)N1CCN(c2ccc(OCC3COC(Cn4ccnc4)(c4ccc(Cl)cc4Cl)O3)cc2)CC1 (stereo not shown) [Ketoconazole] and give its recorded solubility thermodynamic at 4 h.
OUT: 3730

====

# methodNotes: physchem
# testParameters: human, pooled antral (gastric) aspirates, fed state, pH 4, plasma or biological fluid, thermodynamic from solid
measurementLabel: solubility thermodynamic at 4 h (µg/mL)
// note: answer is a bare numeric in µg/mL

IN: # return recorded solubility thermodynamic at 4 h for input CC(=O)N1CCN(c2ccc(OCC3COC(Cn4ccnc4)(c4ccc(Cl)cc4Cl)O3)cc2)CC1 (stereo not shown)
OUT: 3000

====

# methodNotes: physchem
# testParameters: simple aqueous solution, pH 4.6
measurementLabel: solubility (µg/mL)
Reply with just the number (in µg/mL).

IN: State its solubility: CC(=O)N1CCN(c2ccc(OCC3COC(Cn4ccnc4)(c4ccc(Cl)cc4Cl)O3)cc2)CC1 (stereo not shown) [Ketoconazole]
OUT: 170

====

# methodNotes: physchem
# testParameters: aqueous phase, pH 3.7
measurementLabel: solubility thermodynamic

IN: Note solubility thermodynamic for the compound shown: CC(=O)N1CCN(c2ccc(OCC3COC(Cn4ccnc4)(c4ccc(Cl)cc4Cl)O3)cc2)CC1 (stereo not shown)
OUT: 1290 µg/mL

====

# methodNotes: physchem
# testParameters: human, pooled antral (gastric) aspirates, fed state, pH 4.1, plasma or biological fluid, thermodynamic from solid
measurementLabel: solubility thermodynamic at 4 h
Record the result as number plus unit.

IN: Query solubility thermodynamic at 4 h for CC(=O)N1CCN(c2ccc(OCC3COC(Cn4ccnc4)(c4ccc(Cl)cc4Cl)O3)cc2)CC1 (stereo not shown)
OUT: 2340 µg/mL

====

# methodNotes: Shake-flask apparent equilibrium solubility in biorelevant media (FeSSGF-V2, FEDGAS pH 3, FeSSGF-V3)
# Type: physicochemical
# testParameters: Level II FeSSGF-V3acetates, pH 3, Level II FeSSGF-V3acetates, initial pH 3, pHeq 3.7
measurementLabel: solubility thermodynamic at 4 h
Answer shape: numeric part, then the unit.

IN: Answer with reported solubility thermodynamic at 4 h of CC(=O)N1CCN(c2ccc(OCC3COC(Cn4ccnc4)(c4ccc(Cl)cc4Cl)O3)cc2)CC1 (stereo not shown)
OUT: 3450 µg/mL

====

# methodNotes: physchem
# testParameters: simple aqueous solution, pH 4
measurementLabel: solubility

IN: In one line, give reported solubility of the entry CC(=O)N1CCN(c2ccc(OCC3COC(Cn4ccnc4)(c4ccc(Cl)cc4Cl)O3)cc2)CC1 (stereo not shown) [Ketoconazole] .
OUT: 650 µg/mL

====

# methodNotes: Shake-flask apparent equilibrium solubility in pooled human antral aspirates (HGFfed) collected after a high-calorie, high-fat meal and water
# Assay type: physicochemical
# testParameters: pooled antral (gastric) aspirates, fed state, 37 °C, plasma or biological fluid, thermodynamic from solid, from the four mean values in HGFfed45, 75, 105, 135, read-out: grand mean apparent solubility in HGFfed
measurementLabel: solubility at 4 h (µg/mL)
Provide the reading as a plain figure in µg/mL.

IN: Hello, please tell me recorded solubility at 4 h for this one: CC(=O)N1CCN(c2ccc(OCC3COC(Cn4ccnc4)(c4ccc(Cl)cc4Cl)O3)cc2)CC1 (stereo not shown) [Ketoconazole]
OUT: 2290

====

# methodNotes: physchem
# testParameters: simple aqueous solution, pH 4.1
measurementLabel: solubility (µg/mL)
Numbers only here, please. The scale is µg/mL.

IN: Check the records and state solubility for CC(=O)N1CCN(c2ccc(OCC3COC(Cn4ccnc4)(c4ccc(Cl)cc4Cl)O3)cc2)CC1 (stereo not shown) [Ketoconazole]
OUT: 520

====

# methodNotes: physchem
# testParameters: human, pooled antral (gastric) aspirates, fed state, pH 4.2, plasma or biological fluid, thermodynamic from solid
measurementLabel: solubility thermodynamic at 4 h (µg/mL)
API: value field is a number in µg/mL; no unit string.

IN: Give the reported solubility thermodynamic at 4 h for this compound. CC(=O)N1CCN(c2ccc(OCC3COC(Cn4ccnc4)(c4ccc(Cl)cc4Cl)O3)cc2)CC1 (stereo not shown) [Ketoconazole]
OUT: 1470
